Source listed as ChEMBL document CHEMBL1155050.

Assay Text: Tmax in dog at 0.5 mg/kg, iv and 1 mg/kg, po
Type: ADME, organism-based, Canis lupus familiaris
Condition Set: in vivo
Property: Tmax
Number first, unit second: that is the form wanted.

Tmax recorded for this molecule, CN[C@H]1CC[C@@H](c2ccc(Cl)c(Cl)c2)c2ccc(S(N)(=O)=O)cc21 , is 120 min

// field: Tmax; key: CN(C)Cc1cc(CNS(C)(=O)=O)ccc1Oc1ccc(OC(F)(F)F)cc1 ; value = 30 min

GET /value?item= CN(C)Cc1cc(NS(C)(=O)=O)ccc1Oc1ccc(C(F)(F)F)cc1 &field=Tmax returns 30 min

----------
Assay Text: Oral bioavailability in dog at 1 mg/kg
Type: ADME, organism-based, Canis lupus familiaris
Condition Set: in vivo
For each entry below, report its bioavailability value.
Supply the numeric figure in %, leaving out any unit text.

Per the records, this compound ( CN(C)Cc1cc(CNS(C)(=O)=O)ccc1Oc1ccc(OC(F)(F)F)cc1 ) has bioavailability equal to 60

bioavailability reported for this compound CN[C@H]1CC[C@@H](c2ccc(Cl)c(Cl)c2)c2ccc(S(N)(=O)=O)cc21 : 66
